The origin of these recorded values is patent US20040224939A1.

- Test system: S pyogenes C203
- METHOD_DESCRIPTION: Antibacterial assay (Test A), standard microtitration MIC, Gram positive
- Type: cell-based
- CONDITION_SUMMARY: Gram Positive Bacteria; strain C203; read-out: Minimum Inhibitory Concentrations, S pyogenes C203
METRIC_NAME: log10 MIC (log10 of the value in µg/mL)

>>> print(df.to_string())
                                   compound  metric_name  numeric_readout
0  CC(=O)NCC1CN(c2ccc3c(c2)CCCCN3)C(=O)O1 (stereo not drawn) [Example 14]    log10 MIC             1.20
1  CC(=O)NC[C@H]1CN(c2ccc3c(c2)CCN(C(=O)Cc2cccs2)CC3)C(=O)O1    log10 MIC            -0.90
2  CC(=O)NC[C@H]1CN(c2ccc3c(c2)C=CCCC3)C(=O)O1    log10 MIC             0.30
3  CC(=O)NC[C@H]1CN(c2ccc3c(c2)CCCCC3)C(=O)O1 [drawing 69]    log10 MIC             0.30
4  CC(=O)NCC1CN(c2ccc3c(c2)OCCCC3=O)C(=O)O1 (stereo not drawn) [Example 12]    log10 MIC             0.30
5  CC(=O)NC[C@H]1CN(c2ccc3c(c2)CCC/C(=C\c2ccc(F)cc2)C3=O)C(=O)O1 [drawing 73]    log10 MIC            -0.30
6  CC(=O)NC[C@H]1CN(c2ccc3c(c2)CCC/C(=C\c2ccncc2)C3=O)C(=O)O1 [drawing 72]    log10 MIC             0.00
7  CC(=O)NCC1CN(c2ccc3c(c2)CC(=O)CCC3)C(=O)O1 (stereo not drawn) [Example 5]    log10 MIC             0.90
8  COC(=O)C1CCCc2cc(N3C[C@H](CNC(C)=O)OC3=O)ccc2C1=O (stereo partly drawn)    log10 MIC             0.60

---

// reported MIC per item
- System: E. faecalis MGH-2
- METHOD_DESCRIPTION: Antibacterial assay (Test A), standard microtitration MIC, Gram positive
- Assay type: cell-based
- CONDITION_SUMMARY: Enterococcus faecalis, MGH2; Gram Positive Bacteria; strain MGH-2; read-out: Minimum Inhibitory Concentrations, E. faecalis MGH-2
METRIC_NAME: MIC (µg/mL)

In [3]: df
Out[3]:
                                   compound  metric_name  numeric_readout
0  CC(=O)NCC1CN(c2ccc3c(c2)OCCCC3=O)C(=O)O1 (stereo not drawn)          MIC                4
1  CC(=O)NCC1CN(c2ccc3c(c2)C=CCCC3)C(=O)O1 (stereo not drawn)          MIC                4
2  CC(=O)NC[C@H]1CN(c2ccc3c(c2)CCCCC3)C(=O)O1 [drawing 69]          MIC                4
